// provenance: patent US20230233569A1

Target: NRAS WT (Homo sapiens, UniProt P01111+P62937)
Sequence (P01111 whole entry): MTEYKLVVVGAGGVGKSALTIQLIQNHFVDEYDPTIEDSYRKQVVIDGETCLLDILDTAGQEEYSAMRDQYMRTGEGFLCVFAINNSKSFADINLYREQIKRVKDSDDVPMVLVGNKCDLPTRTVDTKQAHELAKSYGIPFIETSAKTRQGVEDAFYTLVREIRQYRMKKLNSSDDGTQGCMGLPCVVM
Sequence (P62937 whole entry): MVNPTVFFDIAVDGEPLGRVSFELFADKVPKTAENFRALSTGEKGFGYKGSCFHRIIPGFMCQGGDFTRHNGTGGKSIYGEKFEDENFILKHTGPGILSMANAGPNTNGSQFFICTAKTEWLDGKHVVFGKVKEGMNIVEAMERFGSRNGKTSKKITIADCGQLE
Test: Disruption of BRAF RBD interaction with Ras (FRET / MOA assay, with Cyclophilin A)
Type: biochemical
Conditions: NRAS WT; read-out: NRAS WT FRET data IC50
So I've got a bunch of compounds here, and I need their IC50 values.

Use the examples below as a reference point.
compound	assayed.system	value.kind	reading
CCn1c(-c2cccnc2[C@H](C)OC)c2c3cc(ccc31)-c1csc(n1)C[C@H](NC(=O)[C@H](C(C)C)N(C)C(=O)N1CC([C@@H](C)N(C)C)C1)C(=O)N1CCC[C@H](N1)C(=O)OCC(C)(C)C2 (atropisomer, axis not shown)	NRAS WT (Homo sapiens, UniProt P01111+P62937)	IC50	100 to 1000 nM
CCn1c(-c2cccnc2[C@H](C)OC)c2c3cc(ccc31)-c1csc(n1)C[C@H](NC(=O)[C@H](C(C)C)N(C)C(=O)N1CCCC[C@@H](N(C)C)C1)C(=O)N1CCC[C@H](N1)C(=O)OCC(C)(C)C2	NRAS WT (Homo sapiens, UniProt P01111+P62937)	IC50	100 to 1000 nM
CCn1c(-c2cccnc2[C@H](C)OC)c2c3cc(ccc31)-c1csc(n1)C[C@H](NC(=O)[C@H](C(C)C)N(C)C(=O)N1CCN(C(=O)C3(N(C)C)CC3)CC1)C(=O)N1CCC[C@H](N1)C(=O)OCC(C)(C)C2 (atropisomer, axis not shown)	NRAS WT (Homo sapiens, UniProt P01111+P62937)	IC50	10 to 100 nM
CCn1c(-c2cccnc2[C@H](C)OC)c2c3cc(ccc31)-c1csc(n1)C[C@H](NC(=O)[C@H](C(C)C)N(C)C(=O)N(C)[C@@H]1CCCN(C)C1)C(=O)N1CCC[C@H](N1)C(=O)OCC(C)(C)C2	NRAS WT (Homo sapiens, UniProt P01111+P62937)	IC50	100 to 1000 nM

Give IC50 for all compounds that follow.
1. CCn1c(-c2cccnc2[C@H](C)OC)c2c3cc(ccc31)-c1csc(n1)C[C@H](NC(=O)[C@H](C(C)C)N(C)C(=O)N1C[C@H](N)[C@@H](F)C1)C(=O)N1CCC[C@H](N1)C(=O)OCC(C)(C)C2 (atropisomer, axis not shown)
2. CCn1c(-c2cccnc2[C@H](C)OC)c2c3cc(ccc31)-c1csc(n1)C[C@H](NC(=O)[C@H](C(C)C)N(C)C(=O)N1CC(N)(C#N)C1)C(=O)N1CCC[C@H](N1)C(=O)OCC(C)(C)C2
3. CCn1c(-c2cccnc2[C@H](C)OC)c2c3cc(ccc31)-c1csc(n1)C[C@H](NC(=O)[C@H](C(C)C)N(C)C(=O)N1CC[C@H]1C(=O)NC)C(=O)N1CC(C)C[C@H](N1)C(=O)OCC(C)(C)C2 (some centres unmarked)
4. CCn1c(-c2cccnc2[C@H](C)OC)c2c3cc(ccc31)-c1csc(n1)C[C@H](NC(=O)[C@H](C(C)C)N(C)C(=O)N1C3CC1CN(C)C3)C(=O)N1CCC[C@H](N1)C(=O)OCC(C)(C)C2

1. 100 to 1000 nM
2. 100 to 1000 nM
3. 1000 to 10000 nM
4. 100 to 1000 nM
